System: RS4;11 cells
Assay: RS4;11 cell viability assay (CellTiter Glo)
Type: cell-based, human
Conditions: Homo sapiens, RS4-11, 48 h, 50,000 cells per well, 10% human serum, 48 hours; read-out: RS4; 11 EC50 Values
pEC50: −log10 of the molar value.
MEASURE: pEC50

SMILES_ENTRY	SUBJECT_OF_TEST	QUALIFIER_SYMBOL	ASSAY_VALUE
CC1(C)CCC(CN2CCN(c3ccc(C(=O)NS(=O)(=O)c4ccc(NCC5(N6CCOCC6)CCCCC5)c([N+](=O)[O-])c4)c(Oc4cnc5[nH]ccc5c4)c3)CC2)=C(c2ccc(Cl)cc2)C1	RS4;11 cells	=	5.86
CC1(C)CCC(CN2CCN(c3ccc(C(=O)NS(=O)(=O)c4ccc5nc[nH]c(=O)c5c4)c(Oc4cnc5[nH]ccc5c4)c3)CC2)=C(c2ccc(Cl)cc2)C1	RS4;11 cells	<	5.30
CC1(C)CCC(CN2CCN(c3ccc(C(=O)NS(=O)(=O)c4ccc(NCc5ccc(OC(F)F)cc5)c([N+](=O)[O-])c4)c(Oc4cnc5[nH]ccc5c4)c3)CC2)=C(c2ccc(Cl)cc2)C1	RS4;11 cells	=	6.80
CC1(C)CCC(CN2CCN(c3ccc(C(=O)NS(=O)(=O)c4ccc(N[C@H]5CC[C@@H](NC6CC6)CC5)c([N+](=O)[O-])c4)c(Oc4cnc5[nH]ccc5c4)c3)CC2)=C(c2ccc(Cl)cc2)C1	RS4;11 cells	=	8.73
CC1(C)CCC(CN2CCN(c3ccc(C(=O)NS(=O)(=O)c4ccc(OCC5CCOCC5)c(C(N)=O)c4)c(Oc4cnc5[nH]ccc5c4)c3)CC2)=C(c2ccc(Cl)cc2)C1	RS4;11 cells	=	5.45
CC1(C)CCC(CN2CCN(c3ccc(C(=O)NS(=O)(=O)c4ccc(N[C@H]5CC[C@@H](N6CCOCC6)CC5)c([N+](=O)[O-])c4)c(Oc4cnc5[nH]ccc5c4)c3)CC2)=C(c2ccc(Cl)cc2)C1	RS4;11 cells	=	7.70
CC1(C)CCC(CN2CCN(c3ccc(C(=O)NS(=O)(=O)c4cnc(OCC5(F)CCN(C(CF)CF)CC5)c(Cl)c4)c(Oc4cnc5[nH]ccc5c4)c3)CC2)=C(c2ccc(Cl)cc2)C1	RS4;11 cells	=	7.49
CC1(C)CCC(CC2CCN(c3ccc(C(=O)NS(=O)(=O)c4ccc(OCC5CCOCC5)c(Cl)c4)c(Oc4cnc5[nH]ccc5c4)c3)CC2)=C(c2ccc(Cl)cc2)C1	RS4;11 cells	<	6.00
CN(C)CC(=O)N1CCC(COc2ccc(S(=O)(=O)NC(=O)c3ccc(N4CCN(CC5=C(c6ccc(Cl)cc6)CC(C)(C)CC5)CC4)cc3Oc3cnc4[nH]ccc4c3)cc2Cl)CC1	RS4;11 cells	=	7.83
CC1(C)CCC(CN2CCN(c3ccc(C(=O)NS(=O)(=O)c4ccc(N[C@H]5CCN(C6CCOCC6)C5)c([N+](=O)[O-])c4)c(Oc4cnc5[nH]ccc5c4)c3)CC2)=C(c2ccc(Cl)cc2)C1	RS4;11 cells	=	7.66

* * *

System: RS4;11 cells
Assay: RS4;11 cell viability assay (CellTiter Glo);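 note: acute lymphoblastic leukemia line RS4,11, EC50 derived from percentage of viable cells after treatment relative to untreated controls, cell killing taken as a measure of Bcl-2 inhibition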
Assay type: cell-based, human
Details: Homo sapiens, RS4-11, 48 h, 50,000 cells per well, 10% human serum, 48 hours; read-out: RS4; 11 EC50 Values
Listed below: EC50 values for each entry.

COMPOUND	EC50 (nM)
CC1(C)CCC(CN2CCN(c3ccc(C(=O)NS(=O)(=O)c4ccc(NCC5CN(CC(=O)O)CCO5)c([N+](=O)[O-])c4)c(Oc4cnc5[nH]ccc5c4)c3)CC2)=C(c2ccc(Cl)cc2)C1 (stereo not shown)	683
CC(C)(CO)CNc1ccc(S(=O)(=O)NC(=O)c2ccc(N3CCN(CC4=C(c5ccc(Cl)cc5)CC(C)(C)CC4)CC3)cc2Oc2cnc3[nH]ccc3c2)cc1[N+](=O)[O-]	19.2
CC1(C)CCC(c2ccc(Cl)cc2)=C(CN2CCN(c3ccc(C(=O)NS(=O)(=O)c4cnc(OCC5CCOCC5)c(C#N)c4)c(Oc4cnc5[nH]ccc5c4)c3)CC2)C1	511
CC1(C)CC(c2ccc(Cl)cc2)=C(CN2CCN(c3ccc(C(=O)NS(=O)(=O)c4ccc(N[C@H]5CC[C@H](N6CCOCC6)CC5)c([N+](=O)[O-])c4)c(Oc4cnc5[nH]ccc5c4)c3)CC2)CO1	7.11
CC1(C)CCC(CN2CCN(c3ccc(C(=O)NS(=O)(=O)c4ccc(OCC5COCCO5)c([N+](=O)[O-])c4)c(Oc4cnc5[nH]ccc5c4)c3)CC2)=C(c2ccc(Cl)cc2)C1 (stereo not shown)	34.7
CC1(C)CCC(CN2CCN(c3ccc(C(=O)NS(=O)(=O)c4ccc(NC5CCN(C6CC6)CC5)c([N+](=O)[O-])c4)c(Oc4cnc5[nH]ccc5c4)c3)CC2)=C(c2ccc(Cl)cc2)C1	22.9
CC1(C)CC(c2ccc(Cl)cc2)=C(CN2CCN(c3ccc(C(=O)NS(=O)(=O)c4cnc(OCC5CCOCC5)c(Cl)c4)c(Oc4cnc5[nH]ccc5c4)c3)CC2)CO1	58
CC1(C)CCC(CN2CCN(c3ccc(C(=O)NS(=O)(=O)c4ccc(OC[C@@H]5COCCO5)c([N+](=O)[O-])c4)c(Oc4cnc5[nH]ccc5c4)c3)CC2)=C(c2ccc(Cl)cc2)C1	41.9
CC1(C)CCC(CN2CCN(c3ccc(C(=O)NS(=O)(=O)c4ccc(N[C@H]5CC[C@H](NC6CCOCC6)CC5)c([N+](=O)[O-])c4)c(Oc4cnc5[nH]ccc5c4)c3)CC2)=C(c2ccc(Cl)cc2)C1	3.33
CC1(C)CCC(CN2CCN(c3ccc(C(=O)NS(=O)(=O)c4ccc(OCC5(F)CCN(C(=O)OC(C)(C)C)CC5)c([N+](=O)[O-])c4)c(Oc4cnc5[nH]ccc5c4)c3)CC2)=C(c2ccc(Cl)cc2)C1	53.6
